Values compiled from paper PMC5508670.

# studySystem: calpain-I (Sus scrofa)
# Construct: purchased CalBiochem
# Sequence (P35750 whole entry): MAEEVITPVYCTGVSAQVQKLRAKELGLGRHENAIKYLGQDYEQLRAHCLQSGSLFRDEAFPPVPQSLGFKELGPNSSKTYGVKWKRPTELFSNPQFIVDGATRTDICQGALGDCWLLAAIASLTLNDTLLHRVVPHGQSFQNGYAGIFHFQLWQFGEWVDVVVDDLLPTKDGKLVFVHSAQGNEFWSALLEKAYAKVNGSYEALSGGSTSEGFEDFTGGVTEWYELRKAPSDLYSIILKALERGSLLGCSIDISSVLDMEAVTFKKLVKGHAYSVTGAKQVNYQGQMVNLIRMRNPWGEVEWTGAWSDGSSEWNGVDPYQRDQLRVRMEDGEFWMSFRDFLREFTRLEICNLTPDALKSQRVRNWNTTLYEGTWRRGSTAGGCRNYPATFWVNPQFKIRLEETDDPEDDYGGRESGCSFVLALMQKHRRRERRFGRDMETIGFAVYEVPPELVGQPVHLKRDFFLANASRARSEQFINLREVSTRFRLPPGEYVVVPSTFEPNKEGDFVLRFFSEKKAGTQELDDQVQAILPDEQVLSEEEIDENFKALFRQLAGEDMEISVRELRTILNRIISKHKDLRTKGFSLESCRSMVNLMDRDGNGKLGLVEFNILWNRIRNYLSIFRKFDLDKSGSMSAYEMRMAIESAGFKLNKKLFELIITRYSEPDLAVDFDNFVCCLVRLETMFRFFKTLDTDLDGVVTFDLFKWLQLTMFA
# Sequence (P04574 whole entry, further chain): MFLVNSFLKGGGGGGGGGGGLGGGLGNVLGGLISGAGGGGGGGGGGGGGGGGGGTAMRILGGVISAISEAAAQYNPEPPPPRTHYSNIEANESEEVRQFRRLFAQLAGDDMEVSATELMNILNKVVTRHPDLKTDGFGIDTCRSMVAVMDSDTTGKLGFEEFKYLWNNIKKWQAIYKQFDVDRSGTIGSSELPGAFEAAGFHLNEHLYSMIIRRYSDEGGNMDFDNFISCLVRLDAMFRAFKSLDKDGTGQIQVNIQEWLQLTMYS
# testDescription: FRET-based calpain-I inhibition assay in the presence and absence of 10 mM DTT
# Type: biochemical, porcine
# experimentalSetup: absence of DTT (disulfide form); read-out: IC50 of oxidised compounds
assayEndpoint: pIC50
Please treat pIC50 as minus the base-10 logarithm of the molar concentration.

{"smilesStr": "O=C(O)/C(=C/c1cccc(I)c1)SS/C(=C\\c1cccc(I)c1)C(=O)O", "pIC50": 7.60}

Problem: Name the reported pIC50 value associated with the compound `O=C(O)/C(=C/c1ccc(I)cc1)SS/C(=C\c1ccc(I)cc1)C(=O)O`
Result: 8.12
